- assay-system: complex formed between CRBN/DDB1 and iberdomide (UniProt Q96SW2 1-442; Q16531 2-1140)
- Sequence (Q96SW2 whole entry, chain 1 of 2): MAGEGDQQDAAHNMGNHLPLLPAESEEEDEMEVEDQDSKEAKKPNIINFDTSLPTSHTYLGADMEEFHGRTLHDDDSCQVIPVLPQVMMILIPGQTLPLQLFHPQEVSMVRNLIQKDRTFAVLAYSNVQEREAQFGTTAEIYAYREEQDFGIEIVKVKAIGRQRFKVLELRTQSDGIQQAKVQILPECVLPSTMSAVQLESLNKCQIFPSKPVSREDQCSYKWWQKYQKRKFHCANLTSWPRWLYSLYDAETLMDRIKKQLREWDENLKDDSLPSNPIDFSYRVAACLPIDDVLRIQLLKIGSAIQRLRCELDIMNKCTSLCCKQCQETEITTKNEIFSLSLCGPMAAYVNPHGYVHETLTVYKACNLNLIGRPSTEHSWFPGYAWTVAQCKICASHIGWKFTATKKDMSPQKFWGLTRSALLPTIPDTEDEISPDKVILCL
- Sequence (Q16531 2-1140, chain 2 of 2): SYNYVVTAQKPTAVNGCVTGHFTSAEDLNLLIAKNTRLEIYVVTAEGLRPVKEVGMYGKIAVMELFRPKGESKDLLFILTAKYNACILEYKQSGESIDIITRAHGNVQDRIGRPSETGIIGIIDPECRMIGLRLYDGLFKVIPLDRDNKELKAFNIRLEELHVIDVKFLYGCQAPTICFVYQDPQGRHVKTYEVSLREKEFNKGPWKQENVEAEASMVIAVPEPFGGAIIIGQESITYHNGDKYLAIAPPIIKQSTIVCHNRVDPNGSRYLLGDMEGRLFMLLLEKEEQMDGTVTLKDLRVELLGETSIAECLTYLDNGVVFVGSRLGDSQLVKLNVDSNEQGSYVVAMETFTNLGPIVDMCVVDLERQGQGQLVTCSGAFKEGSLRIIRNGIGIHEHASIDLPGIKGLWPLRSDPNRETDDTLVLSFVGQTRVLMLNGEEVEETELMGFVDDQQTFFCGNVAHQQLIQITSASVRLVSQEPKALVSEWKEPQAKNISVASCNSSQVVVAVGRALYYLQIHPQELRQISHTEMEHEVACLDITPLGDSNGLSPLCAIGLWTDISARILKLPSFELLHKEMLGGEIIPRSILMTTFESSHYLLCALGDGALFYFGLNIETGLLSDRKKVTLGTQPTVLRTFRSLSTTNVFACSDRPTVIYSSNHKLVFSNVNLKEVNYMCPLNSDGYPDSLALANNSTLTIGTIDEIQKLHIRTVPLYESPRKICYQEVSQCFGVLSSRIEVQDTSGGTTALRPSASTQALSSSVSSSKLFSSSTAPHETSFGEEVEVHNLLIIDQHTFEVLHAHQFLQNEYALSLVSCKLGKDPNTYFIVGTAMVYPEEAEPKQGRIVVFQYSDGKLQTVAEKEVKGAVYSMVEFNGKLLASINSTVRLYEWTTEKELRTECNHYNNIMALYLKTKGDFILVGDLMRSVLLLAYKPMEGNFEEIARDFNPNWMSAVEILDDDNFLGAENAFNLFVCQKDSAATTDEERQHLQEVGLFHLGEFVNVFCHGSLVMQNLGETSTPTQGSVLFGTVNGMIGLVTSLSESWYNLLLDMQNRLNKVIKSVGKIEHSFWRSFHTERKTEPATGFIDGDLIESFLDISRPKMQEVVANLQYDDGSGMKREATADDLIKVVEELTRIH
- assay-method-text: TR-FRET displacement; iberdomide
Measured IC50 values are reported for all entries that follow.
property: IC50

{"binder": "iTAG1 (DCD23) (designed binder) PNVLMVHKRSHTGERPLQCEICGFTCRQKGNLLRHIKLHSGEKPFKCHLCNYACRRRDAL", "reported-result": "36.4 nM"}
{"binder": "iTAG2 (DCD23mut) (designed binder) PNVLMVHNESHTGEIPLQCEICGFTCEQAGNLLNHIELHSGEIPFKCHLCNYACRRRDAL", "reported-result": "556 nM"}
